- method.description: Hepatic clearance, rat
- Type: in vitro ADME
# microsomal CLint values compiled below
measured.metric: microsomal CLint (µL/min/mg)

{"line.notation": "CCCNC(=O)c1ccc(-n2cccn2)s1", "measured.metric": "microsomal CLint", "unit": "µL/min/mg", "sign": "=", "meas.value": 104}
{"line.notation": "CCCNC(=O)c1ccc(N2CCN(C)CC2)s1", "measured.metric": "microsomal CLint", "unit": "µL/min/mg", "sign": "=", "meas.value": 16}
{"line.notation": "CCCNC(=O)c1ccc(N2CCCCC2)s1", "measured.metric": "microsomal CLint", "unit": "µL/min/mg", "sign": ">", "meas.value": 119}
{"line.notation": "CCCNC(=O)c1ccc(-n2c(C)nc3ccccc32)s1", "measured.metric": "microsomal CLint", "unit": "µL/min/mg", "sign": "=", "meas.value": 102}
{"line.notation": "CCCNC(=O)c1ccc(-n2cnc3ccccc32)s1", "measured.metric": "microsomal CLint", "unit": "µL/min/mg", "sign": ">", "meas.value": 119}

---

pIC50: −log10 of the molar value.
Entries with reported pIC50 on UniProt A5K1N1
Sequence (A5K1N1 1-572): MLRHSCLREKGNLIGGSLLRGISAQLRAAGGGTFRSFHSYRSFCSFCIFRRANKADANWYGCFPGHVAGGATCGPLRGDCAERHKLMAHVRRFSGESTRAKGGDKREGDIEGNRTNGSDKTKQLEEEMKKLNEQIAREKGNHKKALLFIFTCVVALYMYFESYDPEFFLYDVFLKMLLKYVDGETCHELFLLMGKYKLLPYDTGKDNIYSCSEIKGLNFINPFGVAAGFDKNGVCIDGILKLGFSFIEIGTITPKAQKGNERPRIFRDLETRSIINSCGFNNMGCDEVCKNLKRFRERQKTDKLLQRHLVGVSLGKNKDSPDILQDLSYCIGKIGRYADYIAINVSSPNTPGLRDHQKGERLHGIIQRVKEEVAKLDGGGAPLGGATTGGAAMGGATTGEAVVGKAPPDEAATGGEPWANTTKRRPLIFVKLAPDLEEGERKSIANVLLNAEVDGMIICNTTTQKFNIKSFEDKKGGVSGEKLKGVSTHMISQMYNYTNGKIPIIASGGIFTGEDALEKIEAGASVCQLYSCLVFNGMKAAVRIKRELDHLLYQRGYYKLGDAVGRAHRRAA

{"molecule": "O=C(NC1CC1)c1ccc(N2CCSc3ccccc32)s1 [Compound 5]", "test.target": "UniProt A5K1N1", "pIC50": 6.55}
{"molecule": "CCCNC(=O)c1ccc(-n2c(C)cc3ccccc32)s1 [Compound 1]", "test.target": "UniProt A5K1N1", "pIC50": 6.38}

---

Entries with reported IC50 on pbDHODH (Plasmodium berghei)
Sequence (A0A509AEH5 1-517): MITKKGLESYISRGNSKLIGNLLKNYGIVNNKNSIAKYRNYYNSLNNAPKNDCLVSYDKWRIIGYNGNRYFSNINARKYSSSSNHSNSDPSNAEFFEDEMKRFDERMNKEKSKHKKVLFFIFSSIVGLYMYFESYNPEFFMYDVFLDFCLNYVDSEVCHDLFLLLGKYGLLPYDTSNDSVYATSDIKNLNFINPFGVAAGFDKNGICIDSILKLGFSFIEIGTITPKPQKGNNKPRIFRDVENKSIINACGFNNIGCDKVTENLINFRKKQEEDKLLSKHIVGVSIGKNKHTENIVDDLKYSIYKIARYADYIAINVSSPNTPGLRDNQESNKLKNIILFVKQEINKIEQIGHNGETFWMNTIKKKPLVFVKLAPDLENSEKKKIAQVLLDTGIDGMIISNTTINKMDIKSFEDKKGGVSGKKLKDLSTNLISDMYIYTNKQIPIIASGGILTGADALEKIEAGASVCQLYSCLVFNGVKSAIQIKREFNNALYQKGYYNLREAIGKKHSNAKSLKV

{"line.notation": "O=C(NC1CC1)c1ccc(N2CCSc3ccccc32)s1", "IC50 / nM": 380}
{"line.notation": "CCCNC(=O)c1ccc(-n2c(C)cc3ccccc32)s1", "IC50 / nM": 60}

---

# pIC50 values compiled below
- Tested on: P. falciparum 3D7
- method.description: Inhibition of in vitro P. falciparum culture, [3H]-hypoxanthine uptake, 3D7
- Format: cell-based
- reported.conditions: Plasmodium falciparum, 3D7; Table 3; [3H]-hypoxanthine uptake; read-out: 3D7 IC50
pIC50: −log10 of the molar value.

{"molecule": "CCCNC(=O)c1ccc(-n2cnc3ccccc32)s1 [Compound 11]", "test.target": "P. falciparum 3D7", "sign": "=", "pIC50": 6.33}
{"molecule": "CCCNC(=O)c1ccc(-n2cccn2)s1 [Compound 9]", "test.target": "P. falciparum 3D7", "sign": "<", "pIC50": 5.00}
{"molecule": "CCCNC(=O)c1ccc(-n2c(C)nc3ccccc32)s1 [Compound 12]", "test.target": "P. falciparum 3D7", "sign": "=", "pIC50": 6.20}
{"molecule": "CCCNC(=O)c1ccc(N2CCN(C)CC2)s1 [Compound 10]", "test.target": "P. falciparum 3D7", "sign": "<", "pIC50": 5.00}
{"molecule": "CCCNC(=O)c1ccc(N2CCCCC2)s1 [Compound 8]", "test.target": "P. falciparum 3D7", "sign": "<", "pIC50": 5.00}
{"molecule": "CCCNC(=O)c1ccc(-n2c(C)cc3ccccc32)s1 [Compound 1]", "test.target": "P. falciparum 3D7", "sign": "=", "pIC50": 6.41}

---

- test.target: pfDHODH (Plasmodium falciparum (isolate 3D7), UniProt Q08210)
- Sequence (Q08210 159-565 limits assumed): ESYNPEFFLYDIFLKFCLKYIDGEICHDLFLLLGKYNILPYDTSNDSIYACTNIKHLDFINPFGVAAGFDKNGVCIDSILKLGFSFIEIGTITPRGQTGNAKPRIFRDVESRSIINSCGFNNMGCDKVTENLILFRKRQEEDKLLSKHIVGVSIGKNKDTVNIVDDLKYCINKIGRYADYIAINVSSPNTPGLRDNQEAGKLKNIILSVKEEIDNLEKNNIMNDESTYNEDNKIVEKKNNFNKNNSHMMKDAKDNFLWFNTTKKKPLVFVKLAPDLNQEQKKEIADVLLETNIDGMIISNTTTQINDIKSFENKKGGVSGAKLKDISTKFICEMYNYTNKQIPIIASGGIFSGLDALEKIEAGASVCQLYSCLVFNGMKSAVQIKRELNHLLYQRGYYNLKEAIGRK
- method.description: DHODH chromogen reduction (DCIP) assay, pfDHODH
- Assay type: biochemical, P. falciparum
- reported.conditions: Table 2b; read-out: pfDHODH IC50
Label Met when IC50 is strictly below 300 nM; at or above that, label Not met.

{"molecule": "Cc1nc2ccccc2n1-c1cscc1C(=O)NC1CC1", "group": "Not met"}
{"molecule": "c1ccc2oc(-c3ccc(-c4nc5ccccc5o4)s3)nc2c1", "group": "Not met"}
{"molecule": "Cc1nc2cc(F)ccc2n1-c1ccc(C(=O)NC2CC2)s1 [Compound 42]", "group": "Met"}
{"molecule": "Cc1nc2cc(F)c(F)cc2n1-c1ccc(C(=O)NC2CC2)s1", "group": "Met"}
{"molecule": "CCNC(=O)c1ccc(-n2c(C)nc3cc(F)ccc32)cc1", "group": "Not met"}
{"molecule": "CCCNC(=O)c1ccc(N2CC(C)Sc3ccccc32)s1 (stereo not shown)", "group": "Not met"}
{"molecule": "O=C(c1ccc(-n2cnc3ccccc32)s1)N1CCCC1", "group": "Not met"}
{"molecule": "CCNC(=O)c1ccc(-n2cc(-c3ccccc3)nc2C)s1", "group": "Not met"}
{"molecule": "Cn1c(-c2ccc(-c3nc4ccccc4n3C)s2)nc2ccccc21", "group": "Not met"}
{"molecule": "Cc1nc2cc3c(cc2n1-c1ccc(C(=O)NC2CC2)s1)OCO3", "group": "Met"}
{"molecule": "CCCc1nc2ccccc2n1-c1ccc(C(=O)NCC)s1", "group": "Not met"}
{"molecule": "Cc1nc2cc(-c3ccccc3)ccc2n1-c1ccc(C(=O)NC2CC2)s1", "group": "Met"}
{"molecule": "Cc1nc2ccc(-c3ccccc3)cc2n1-c1ccc(C(=O)NC2CC2)s1", "group": "Met"}
{"molecule": "O=C(c1ccc(-n2cnc3ccccc32)s1)N1CCCCC1", "group": "Not met"}
{"molecule": "CC[C@@H](C)NC(=O)c1ccc(-n2cnc3ccccc32)s1", "group": "Not met"}
{"molecule": "O=C(NC1CC1)c1ccc(-n2c(O)nc3ccccc32)s1", "group": "Not met"}
{"molecule": "O=C(NC1CC1)c1ccc(-n2nnc3ccccc32)s1", "group": "Not met"}
{"molecule": "O=C(NC1CC1)c1ccc(-c2nc3ccccc3o2)s1", "group": "Not met"}
{"molecule": "CCCNC(=O)c1ccc(N2CCOc3ccc(Cl)cc32)s1", "group": "Not met"}
{"molecule": "O=C(NC1CCCC1)c1ccc(-n2cnc3ccccc32)s1", "group": "Not met"}
{"molecule": "Cc1nc2cc(OC(C)C)ccc2n1-c1ccc(C(=O)NC2CC2)s1", "group": "Met"}
{"molecule": "c1ccc2[nH]c(-c3ccc(-c4nc5ccccc5[nH]4)s3)nc2c1", "group": "Not met"}
{"molecule": "CCc1nc2ccccc2n1-c1ccc(C(=O)NC2CC2)s1", "group": "Met"}
{"molecule": "Cn1c(-c2ccc(C(=O)NC3CC3)s2)nc2ccccc21", "group": "Not met"}
{"molecule": "CCCNC(=O)c1ccc(-n2cccn2)s1", "group": "Not met"}
{"molecule": "CCCNC(=O)c1ccc(N2CCc3ccccc32)s1", "group": "Not met"}
{"molecule": "Cc1ccc2c(c1)nc(C)n2-c1ccc(C(=O)NC2CC2)s1", "group": "Met"}
{"molecule": "CCCNC(=O)c1ccc(-n2ccnc2)s1", "group": "Not met"}
{"molecule": "CCCCNC(=O)c1ccc(-n2cnc3ccccc32)s1", "group": "Not met"}
{"molecule": "CCCNC(=O)c1ccc(-n2c(C)nc3cc(Cl)ccc32)s1", "group": "Met"}
{"molecule": "O=C(c1ccc(-n2cnc3ccccc32)s1)N1CCC1", "group": "Not met"}
{"molecule": "Cc1nc2ncccc2n1-c1ccc(C(=O)NC2CC2)s1", "group": "Not met"}
{"molecule": "CCCCC(=O)c1ccc(-n2cnc3ccccc32)s1", "group": "Not met"}
{"molecule": "CCCC/C(=N\\O)c1ccc(-n2cnc3ccccc32)s1", "group": "Not met"}
{"molecule": "Cc1cccc2c1nc(C)n2-c1ccc(C(=O)NC2CC2)s1", "group": "Met"}
{"molecule": "Cc1ccc2c(c1)ncn2-c1ccc(C(=O)NC2CC2)s1", "group": "Met"}
{"molecule": "CCCNC(=O)c1ccc(N2CCSc3ncccc32)s1", "group": "Not met"}
{"molecule": "Cc1nc2cc3ccccc3cc2n1-c1ccc(C(=O)NC2CC2)s1", "group": "Met"}
{"molecule": "Cc1nc(-c2ccc(F)cc2)cn1-c1ccc(C(=O)NC2CC2)s1", "group": "Met"}
{"molecule": "CN(C)C(=O)c1ccc(-n2cnc3ccccc32)s1", "group": "Not met"}
